- Tested on: RAW-Dual (murine macrophage reporter line)
- assayName: IRF reporter (Lucia luciferase) activity fold change vs agonist alone; higher = enhanced IRF activity
- conditions: modulator concentration 10 µM; agonist: 3'3'-cGAMP 10 ug/mL
Please note: Condition met applies when IRF reporter is 0.9 or greater, and Condition not met applies otherwise.

## Input Given the entry `CCOC(=O)C1=C(C)NC(C)=C(C(=O)OCC)C1c1ccco1` , answer whether its IRF reporter meets or surpasses 0.9.
## Output Condition not met

## Input Given the entry `[O-][n+]1cccc(CO)c1` , answer whether its IRF reporter meets or surpasses 0.9.
## Output Condition met

## Input Given the entry `Cc1cc2c(cc1S(N)(=O)=O)S(=O)(=O)CCC2` , answer whether its IRF reporter meets or surpasses 0.9.
## Output Condition met

## Input Given the entry `CCCCOc1cc(C(=O)NCCN(CC)CC)c2ccccc2n1.Cl` , answer whether its IRF reporter meets or surpasses 0.9.
## Output Condition not met

## Input Given the entry `N#CC[C@@H](C1CCCC1)n1cc(-c2ncnc3[nH]ccc23)cn1` , answer whether its IRF reporter meets or surpasses 0.9.
## Output Condition not met

## Input Given the entry `COc1ccc(-c2cc(=O)oc3cc(OCc4cc5c(cc4Cl)OCO5)ccc23)cc1` , answer whether its IRF reporter meets or surpasses 0.9.
## Output Condition met

## Input Given the entry `CN1CCN(c2ccc(-c3cccc(NC(=O)COc4ccc(Cl)cc4)c3)nn2)CC1` , answer whether its IRF reporter meets or surpasses 0.9.
## Output Condition not met

## Input Given the entry `COc1cc(OC)c(C(=O)CCCN2CCCC2)c(OC)c1.Cl` , answer whether its IRF reporter meets or surpasses 0.9.
## Output Condition met
